The measured values listed here are drawn from patent US4485117A.

Assay: in vivo
Conditions: rat, rats, oral, read-out: acute oral LD50
Experimental: The acute oral LD50 's of compounds of formula (I) in rats were determined by standard techniques.
MEASURE NAME: LD50

| MOLECULE | MEASURE NAME | ENDPOINT RESULT |
| --- | --- | --- |
| CC(C)(C)C1CCC(C2=C(O)C(=O)c3ccccc3C2=O)CC1 (stereo not shown) | LD50 | > 1000 mg/kg |

###

Test system: Plasmodium falciparum
Test: Inhibitory effect on Plasmodium falciparum in culture (G-3H-hypoxanthine uptake)
Format: cell-based
Details: Plasmodium falciparum, 36 h, P. falciparum culture, 36 hours; read-out: ED50 (the source's name)
pIC50: −log10 of the molar value.

| COMPOUND | pIC50 |
| --- | --- |
| CC(C)(C)C1CCCC(C2=C(O)C(=O)c3ccccc3C2=O)C1 (stereo not drawn) [3'-t-Butyl (80% trans), reference compound] | 6.52 |
| CC(C)(C)[C@H]1CC[C@@H](C2=C(O)C(=O)c3ccccc3C2=O)CC1 [4'-t-Butyl (100% cis)] | 8.97 |
| O=C1C(O)=C([C@H]2CC[C@H](C3CCCCC3)CC2)C(=O)c2ccccc21 [4'-Cyclohexyl (100% trans), reference compound] | 8.39 |
| C[C@H]1CC[C@H](C2=C(O)C(=O)c3ccccc3C2=O)CC1 [4'-Methyl (100% trans), reference compound] | 8.04 |
| CC(C)(C)[C@H]1CC[C@H](C2=C(O)C(=O)c3ccccc3C2=O)CC1 [4'-t-Butyl (100% trans)] | 10.24 |
| CCC(C)(C)C1CCC(C2=C(O)C(=O)c3ccccc3C2=O)CC1 (stereo not drawn) [4'-t-Pentyl (60% trans)] | 10.22 |
